target: Ubiquitin carboxyl-terminal hydrolase 1/WD repeat-containing protein 48 (Homo sapiens, UniProt O94782); experiment: Not found
Sequence (O94782 whole entry): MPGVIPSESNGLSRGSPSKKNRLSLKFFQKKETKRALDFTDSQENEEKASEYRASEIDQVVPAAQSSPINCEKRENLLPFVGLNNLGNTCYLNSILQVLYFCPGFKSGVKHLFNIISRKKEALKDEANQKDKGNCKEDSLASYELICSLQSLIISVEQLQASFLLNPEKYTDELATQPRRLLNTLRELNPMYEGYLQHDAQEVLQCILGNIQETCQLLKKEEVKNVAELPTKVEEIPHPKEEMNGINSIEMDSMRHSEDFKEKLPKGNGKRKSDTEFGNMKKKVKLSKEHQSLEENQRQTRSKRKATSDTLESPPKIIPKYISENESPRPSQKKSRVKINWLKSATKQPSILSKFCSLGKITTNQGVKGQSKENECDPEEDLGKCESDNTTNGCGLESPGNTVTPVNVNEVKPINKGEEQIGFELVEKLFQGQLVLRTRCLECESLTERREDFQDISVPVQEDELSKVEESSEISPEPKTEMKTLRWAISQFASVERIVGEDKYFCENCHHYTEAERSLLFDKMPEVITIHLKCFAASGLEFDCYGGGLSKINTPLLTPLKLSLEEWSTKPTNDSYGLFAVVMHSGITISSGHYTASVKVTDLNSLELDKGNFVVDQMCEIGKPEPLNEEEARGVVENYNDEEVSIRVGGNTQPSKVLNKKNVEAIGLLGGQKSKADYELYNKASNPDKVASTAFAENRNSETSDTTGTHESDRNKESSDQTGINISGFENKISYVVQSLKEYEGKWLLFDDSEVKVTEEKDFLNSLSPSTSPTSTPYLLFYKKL
Sequence (Q8TAF3 whole entry, further chain): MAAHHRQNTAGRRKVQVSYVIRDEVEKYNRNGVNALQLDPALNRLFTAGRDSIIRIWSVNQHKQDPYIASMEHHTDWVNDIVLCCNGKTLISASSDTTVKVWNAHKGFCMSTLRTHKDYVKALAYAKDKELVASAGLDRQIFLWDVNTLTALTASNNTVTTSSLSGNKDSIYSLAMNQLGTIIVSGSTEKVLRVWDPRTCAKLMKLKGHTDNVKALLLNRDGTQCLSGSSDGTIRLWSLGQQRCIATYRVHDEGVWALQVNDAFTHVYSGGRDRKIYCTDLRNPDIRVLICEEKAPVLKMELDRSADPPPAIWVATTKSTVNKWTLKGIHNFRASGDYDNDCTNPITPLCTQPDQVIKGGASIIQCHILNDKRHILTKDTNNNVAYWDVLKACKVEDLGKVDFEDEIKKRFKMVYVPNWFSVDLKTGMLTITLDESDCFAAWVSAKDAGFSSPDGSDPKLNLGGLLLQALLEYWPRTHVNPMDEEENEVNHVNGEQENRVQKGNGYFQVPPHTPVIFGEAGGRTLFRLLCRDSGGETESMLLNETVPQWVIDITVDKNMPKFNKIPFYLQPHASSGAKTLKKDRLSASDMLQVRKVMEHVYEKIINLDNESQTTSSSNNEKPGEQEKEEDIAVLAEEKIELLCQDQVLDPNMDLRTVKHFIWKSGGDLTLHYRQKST
reported-metric: IC50 (nM)
State just the number; it will be interpreted in nM.

Looking up COc1ncnc(OC)c1-c1nc2c(Cc3ccc(-c4nc(C(F)(F)F)cn4C)cc3)cccn2n1 [US20240409538, Example 27] , I found its IC50 recorded as 77.5
